Biological target: T1, DXd-conjugated antigen
T1 construct: also called DXd conjugated antigens
Assay: competitive ELISA: coated DXd-conjugated antigen, antibody titrated with 1 ug/ml free biotin-DXd (small molecule) as competitor, streptavidin-HRP detection
measured.endpoint: IC50 (ng/mL)
Just the number in ng/mL, nothing appended.

35D6 (antibody, V domains shown, also called recombinant anti-DXd mAb 35D6) VH: QSVEESGGRLVTPGTPLTLTCTVSGFSLSSHWMSWVRQAPGKGLEWIGIISSSGSTDYVSWAKGRFTISKTSTTVDLKITSPTTEDTATYFCARDLGYSTNIWGPGTLVTVSL VL: AYDMTQTPASVEVTVGGTVTIKCQASQSIGSYLAWYQQKPGQRPKLLIYDASTLASGVSSRFKGSGSGTQFTLTISGVECADAATYYCQQGYSSSGVDNAFGGGTEVVVK; 5.24
28C8 (antibody, V domains shown, also called recombinant anti-DXd mAb 28C8) VH: QSVEESGGRLVTPGTPLTLTCTVSGFSLSSYAMNWVRQAPGKGLEYIGIIYDSGSTYYANWAKGRFTISKTSTTVDLKITSPTTEDTATYFCARGYLDIWGPGTLVTVSS VL: AAVLTQTPSPVSAAVGGTVSISCQSSKSVYNNKWLSWLQQKPGQPPKLLIYGASTLASGVPSRFKGSGSGTEFTLTISDVQCDDAATYYCAGGYSISSDNAFGGGTEVVVK; 1.58
77G10 (antibody, V domains shown, also called recombinant anti-DXd mAb 77G10) VH: QSLEESGGRLVTPGTPLTLTCTASGFSLSSYYMSWVRQAPGKGLEYIGIISSSGSTDYASWAKGRFTISKTSTTVDLKITSPTTEDTATYFCARGWLDLWGQGTLVTVSS VL: AAVLTQTPSPVSAAVGGTVSISCQSSKSVYNNNWLSWLQQKPGQPPKLLIHGASTLASGVPSRFKGSGSGTQFTLTISDVQCDDAATYYCAGGYSSSTDNAFGGGTEVVVK; 0.953

IN: Could you tell me which IC50 is on file for 29D2 (antibody, V domains shown, also called recombinant anti-DXd mAb 29D2) VH: QSVEESGGRLVTPGTPLTLTCTASGFSLSSYAMNWVRQAPGKGLEYIGIIYDSGTTYYASWAKGRFTISKTSTTVDLKITSPTTEDTATYFCARAALDIWGPGTLVTVSS VL: AAVLTQTPSPVSAAVGGTVSISCQASKSVYNNNWLSWVQQTPGQPPKLLIYGASTLASGVPSRFKGSGSGTQFTLTISDVQCDDAATYYCAGGYGSSSDNAFGGGTEVVVE ?
OUT: 1.26

The origin of these recorded values is patent US20250026859A1.
